target: ATP-binding cassette transporter A1 (ABCA1) (UniProt P41233 1-2261, limits assumed); assay: cell-based or functional assay
Sequence (P41233 whole entry): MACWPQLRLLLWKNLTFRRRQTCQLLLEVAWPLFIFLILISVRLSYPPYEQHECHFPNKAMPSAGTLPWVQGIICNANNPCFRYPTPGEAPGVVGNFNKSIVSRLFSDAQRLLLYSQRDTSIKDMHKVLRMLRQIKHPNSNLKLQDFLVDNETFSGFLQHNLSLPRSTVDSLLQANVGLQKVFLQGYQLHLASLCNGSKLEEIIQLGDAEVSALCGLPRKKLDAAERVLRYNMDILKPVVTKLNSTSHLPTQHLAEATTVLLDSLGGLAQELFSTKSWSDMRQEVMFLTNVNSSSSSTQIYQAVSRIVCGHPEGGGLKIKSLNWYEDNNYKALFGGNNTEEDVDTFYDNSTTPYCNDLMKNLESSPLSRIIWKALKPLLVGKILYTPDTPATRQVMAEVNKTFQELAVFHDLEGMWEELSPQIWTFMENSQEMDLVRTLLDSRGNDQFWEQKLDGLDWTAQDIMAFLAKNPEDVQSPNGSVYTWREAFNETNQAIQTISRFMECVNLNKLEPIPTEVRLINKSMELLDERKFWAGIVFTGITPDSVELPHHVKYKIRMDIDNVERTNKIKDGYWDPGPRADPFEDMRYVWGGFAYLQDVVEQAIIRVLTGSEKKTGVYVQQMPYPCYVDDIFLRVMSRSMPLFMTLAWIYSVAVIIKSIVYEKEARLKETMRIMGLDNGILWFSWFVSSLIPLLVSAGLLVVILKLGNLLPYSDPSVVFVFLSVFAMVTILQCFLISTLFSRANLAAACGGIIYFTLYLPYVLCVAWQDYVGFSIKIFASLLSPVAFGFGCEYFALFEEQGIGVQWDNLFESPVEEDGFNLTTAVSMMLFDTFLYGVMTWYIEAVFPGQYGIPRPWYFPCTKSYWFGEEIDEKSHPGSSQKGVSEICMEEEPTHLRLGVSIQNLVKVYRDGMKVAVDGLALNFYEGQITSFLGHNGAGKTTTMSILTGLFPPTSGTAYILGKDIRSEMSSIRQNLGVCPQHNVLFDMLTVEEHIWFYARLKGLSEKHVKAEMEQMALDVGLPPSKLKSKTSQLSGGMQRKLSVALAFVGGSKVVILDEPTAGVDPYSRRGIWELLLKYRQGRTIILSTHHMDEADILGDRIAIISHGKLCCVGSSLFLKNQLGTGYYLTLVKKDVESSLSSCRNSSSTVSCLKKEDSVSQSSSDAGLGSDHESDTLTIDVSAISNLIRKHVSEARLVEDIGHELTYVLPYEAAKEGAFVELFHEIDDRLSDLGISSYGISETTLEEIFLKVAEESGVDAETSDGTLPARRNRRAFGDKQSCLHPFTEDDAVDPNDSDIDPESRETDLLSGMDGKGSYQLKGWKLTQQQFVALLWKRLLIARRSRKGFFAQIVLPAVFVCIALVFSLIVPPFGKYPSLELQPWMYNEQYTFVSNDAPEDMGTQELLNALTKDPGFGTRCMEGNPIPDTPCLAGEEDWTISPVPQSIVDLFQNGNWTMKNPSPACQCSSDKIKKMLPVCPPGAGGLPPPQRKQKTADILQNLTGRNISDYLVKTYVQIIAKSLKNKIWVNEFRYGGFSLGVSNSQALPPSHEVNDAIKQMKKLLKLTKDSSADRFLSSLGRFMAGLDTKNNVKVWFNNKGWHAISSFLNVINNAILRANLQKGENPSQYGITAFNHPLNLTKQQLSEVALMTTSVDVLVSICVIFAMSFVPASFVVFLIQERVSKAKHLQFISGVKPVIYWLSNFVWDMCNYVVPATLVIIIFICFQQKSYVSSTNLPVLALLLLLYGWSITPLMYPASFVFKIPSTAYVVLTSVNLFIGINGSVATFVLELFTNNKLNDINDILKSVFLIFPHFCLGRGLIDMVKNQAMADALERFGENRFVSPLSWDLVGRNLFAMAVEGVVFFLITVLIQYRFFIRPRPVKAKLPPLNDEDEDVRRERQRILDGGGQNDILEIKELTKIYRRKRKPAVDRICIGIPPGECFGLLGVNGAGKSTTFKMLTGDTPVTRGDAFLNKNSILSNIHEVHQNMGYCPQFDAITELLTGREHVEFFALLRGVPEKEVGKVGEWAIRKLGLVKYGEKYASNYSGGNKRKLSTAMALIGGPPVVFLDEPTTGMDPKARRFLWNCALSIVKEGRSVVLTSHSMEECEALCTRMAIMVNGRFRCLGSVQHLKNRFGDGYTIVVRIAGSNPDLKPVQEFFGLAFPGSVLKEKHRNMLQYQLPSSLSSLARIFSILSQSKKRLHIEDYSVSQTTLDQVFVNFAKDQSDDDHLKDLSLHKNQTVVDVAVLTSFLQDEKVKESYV
measured parameter: % cholesterol efflux/4 hours at 30 µg/ml (%)

1) EVREKLEAWFELFREFLERF [N965-7] : 2.66
2) EVREKLEAWFELFREFLERFKS [N965-4] : 2.94
3) EVREKLEAWFEAFREFAERFKS [N965-1] : 6.01
4) EVREKLEAWFELFREFLERFLS [N965-5] : 3.82
